tested on: Hep 3B2; assay: Cytotoxicity against human Hep3B cells assessed as cell growth inhibition by MTT colorimetric assay; format: functional, cell-based
Measurement Name: IC50

Can you share its IC50? I mean this molecule: CCOC(=O)c1ccc2c(c1)c1c(n2CCN2CCNCC2)-c2cc(C(C)C)ccc2[C@@]2(C)CCC[C@@](C)(C(=O)OC)[C@H]12 < 730 nM

====

test system: MCF7; assay: Antiproliferative activity against human MCF7 cells assessed as inhibition of cell growth incubated for 24 hrs by MTT assay; assay type: functional, cell-based; settings: MCF7, 24 h
Measurement Name: pIC50
Answers are plain numbers, as −log10 of the molar value.

Can you share its pIC50? I mean this compound: O=C(c1cc2ccc(Cl)cc2n1Cc1cccc2ccccc12)N(CCO)[C@@H]1CC(=O)N2C[C@@H]3CCCN4CCC[C@@H]([C@H]34)[C@H]2C1 5.92
